- Tested on: MDA-MB-468 breast
- protocol: NCI tumour cell line growth inhibition, 48 h; in the data active = GI50 below about 0.43 µM; inactive = the rest
Choose one outcome from this list and give only that: Yes (active), No (inactive)

I'd appreciate the recorded outcome for `CC(C)n1nc(C#Cc2cccc(NC(=O)c3cccc(C(F)(F)F)c3)c2)c2c(N)ncnc21` from this test.
No

I'd appreciate the recorded outcome for `Cn1cc(-c2nc(N)nnc2-c2c[nH]c3ccc(Br)cc23)c2cc(Br)cnc21` from this test.
Yes

I'd appreciate the recorded outcome for `C=C(C)[C@@H]1CCC[C@]2(C(=O)O)CC[C@]3(C)[C@@H](CC[C@@H]4[C@@]5(C)C/C(=C/c6ccncc6)C(=O)C(C)(C)[C@@H]5CC[C@]43C)[C@@H]12` from this test.
No

Hello, the source for this data is PubChem BioAssay (NCI), in case you need it.
